Target: Human BACE (Homo sapiens)
Construct: Recombinant BACE (extracellular domain, expressed in baculovirus and purified using standard methods)
Sequence (P56817 46-457 limits assumed): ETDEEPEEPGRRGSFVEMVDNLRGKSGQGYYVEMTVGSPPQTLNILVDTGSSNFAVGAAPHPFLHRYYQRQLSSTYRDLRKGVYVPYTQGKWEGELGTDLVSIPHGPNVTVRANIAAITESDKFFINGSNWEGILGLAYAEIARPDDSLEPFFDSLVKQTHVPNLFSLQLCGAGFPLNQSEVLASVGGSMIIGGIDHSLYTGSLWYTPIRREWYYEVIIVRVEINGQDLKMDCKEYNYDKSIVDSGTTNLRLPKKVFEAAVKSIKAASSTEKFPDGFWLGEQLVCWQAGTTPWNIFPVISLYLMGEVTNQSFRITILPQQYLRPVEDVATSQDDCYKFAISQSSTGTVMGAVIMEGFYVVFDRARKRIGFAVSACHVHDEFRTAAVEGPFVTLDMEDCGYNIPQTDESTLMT
Assay: Test 1: Inhibition of Human BACE
Conditions: recombinant BACE extracellular domain, fluorescence-quenched APP-derived peptide substrate, pH 4.5
measurement_name: IC50 (nM)
Report the value in nM with no unit label.

Lookup: Need IC50 of CC(C)c1cccc(C2(NC[C@@H](O)[C@@H]3C[C@H](C)CCCCCCCCC(=O)N(C)[C@@H](C)C(=O)N3)CC2)c1 , thanks.
Found: 30
